Test system: Haemophilus influenzae 1218
Assay: MIC, microtiter broth dilution (NCCLS M100-S14), H. influenzae 1218 (susceptible)
Type: cell-based
Conditions: Haemophilus influenzae 1218
Text: The assay described herein includes a panel of bacterial strains assembled to include a variety of target pathogenic species, including representatives of macrolide resistance mechanisms that have been characterized. In many cases, both the macrolide-susceptible parent strain and the macrolide-resistant strain derived from it are available to provide a more accurate assessment of the compound's ability to circumvent the resistance mechanism. […]
measured_attribute: MIC H. influenzae 1218 (µg/mL)
Output spec: scalar in µg/mL, unitless text.

Below, each entry is followed by its recorded MIC H. influenzae 1218 result.
| compound | test_system | MIC H. influenzae 1218 [µg/mL] |
| --- | --- | --- |
| CCC1OC(=O)C(C)C(=O)C(C)C(OC2OC(C)CC(N(C)C)C2O)C(C)(OC)CC(C)C(=O)C(C)C2N(C3CN(Cc4ccc(=O)n5ccccc45)C3)C(=O)OC12C (centres unmarked) | Haemophilus influenzae 1218 | 0.5 |
| CCC1OC(=O)C(C)C(=O)C(C)C(OC2OC(C)CC(N(C)C)C2O)C(C)(OC)CC(C)C(=O)C(C)C2N(C3CN(Cc4c(Cl)cnc5ncccc45)C3)C(=O)OC12C (centres unmarked) | Haemophilus influenzae 1218 | 0.5 |
| CCC1OC(=O)C(C)C(=O)C(C)C(OC2OC(C)CC(N(C)C)C2O)C(C)(OC)CC(C)C(=O)C(C)C2N(CC3CN(C(=O)c4cccc5cccnc45)C3)C(=O)OC12C (centres unmarked) | Haemophilus influenzae 1218 | 0.25 |
| CCC1OC(=O)C(C)C(=O)C(C)C(OC2OC(C)CC(N(C)C)C2O)C(C)(OC)CC(C)C(=O)C(C)C2N(C3CN(Cc4cccc(-c5ccccn5)c4)C3)C(=O)OC12C (centres unmarked) | Haemophilus influenzae 1218 | 2 |

// next item, MIC H. influenzae 1218 requested
In: Form: Entry = CCC1OC(=O)C(C)C(=O)C(C)C(OC2OC(C)CC(N(C)C)C2O)C(C)(OC)CC(C)C(=O)C(C)C2N(C3CN(Cc4ccc(OC)c5nccnc45)C3)C(=O)OC12C (centres unmarked) | System = Haemophilus influenzae 1218 | MIC H. influenzae 1218 = ____
Out: 1

====

tested on: Streptococcus pneumoniae 1095; assay type: cell-based; conditions: S. pneumoniae 1095 (ermB); microtiter broth dilution
Listed next: entries and their corresponding MIC S. pneumo. 1095.
Write the number in µg/mL without appending the unit.

| compound | test_system | MIC S. pneumo. 1095 / µg/mL |
| --- | --- | --- |
| CCC1OC(=O)C(C)C(=O)C(C)C(OC2OC(C)CC(N(C)C)C2O)C(C)(OC)CC(C)C(=O)C(C)C2N(C3CCN(Cc4ccnc5ncccc45)C3)C(=O)OC12C (centres unmarked) [Example 9.05] | Streptococcus pneumoniae 1095 | 0.5 |
| CCC1OC(=O)C(C)C(=O)C(C)C(OC2OC(C)CC(N(C)C)C2O)C(C)(OC)CC(C)C(=O)C(C)C2N(CC3CCN(C(=O)c4ccc5ncccc5c4)C3)C(=O)OC12C (centres unmarked) [11.18] | Streptococcus pneumoniae 1095 | 8 |

In: Suppose we examine the compound CC[C@H]1OC(=O)[C@H](C)C(=O)[C@H](C)[C@@H](O[C@@H]2O[C@H](C)C[C@H](N(C)C)[C@H]2O)[C@](C)(OC)C[C@@H](C)C(=O)[C@H](C)[C@H]2N(CC3(O)CN(C(=O)c4ccc(-n5cccn5)nc4)C3)C(=O)O[C@]12C.O=CO [7.31] ; what MIC S. pneumo. 1095 value has been reported?
Out: 4

====

system: Streptococcus pneumoniae 1175; assay type: cell-based; conditions: Streptococcus pneumoniae 1175; microtiter broth dilution
measured_attribute: MIC S. pneumo. 1175

| compound | observed_result |
| --- | --- |
| CCC1OC(=O)C(C)C(=O)C(C)C(OC2OC(C)CC(N(C)C)C2O)C(C)(OC)CC(C)C(=O)C(C)C2N(C3CN(S(=O)(=O)c4c(Cl)nc5sccn45)C3)C(=O)OC12C (centres unmarked) | <0.063 µg/mL |

In: Requested read-out: MIC S. pneumo. 1175. Entry: CCC1OC(=O)C(C)C(=O)C(C)C(OC2OC(C)CC(N(C)C)C2O)C(C)(OC)CC(C)C(=O)C(C)C2N(C3CN(C(=O)c4cccc(-c5noc(C)n5)c4)C3)C(=O)OC12C (centres unmarked)
Out: 0.25 µg/mL

====

# MIC H. influenzae 1218 per entry
test system: Haemophilus influenzae 1218; assay: MIC, microtiter broth dilution (NCCLS M100-S14), H. influenzae 1218 (susceptible); type: cell-based; conditions: Haemophilus influenzae 1218
Please respond with the number in µg/mL and leave the unit unwritten.

| compound | measured_attribute | endpoint_unit | observed_result |
| --- | --- | --- | --- |
| CCC1OC(=O)C(C)C(=O)C(C)C(OC2OC(C)CC(N(C)C)C2O)C(C)(OC)CC(C)C(=O)C(C)C2N(C3CN(C(=O)Nc4cccc5ncccc45)C3)C(=O)OC12C (centres unmarked) | MIC H. influenzae 1218 | µg/mL | 0.5 |
| CCC1OC(=O)C(C)C(=O)C(C)C(OC2OC(C)CC(N(C)C)C2O)C(C)(OC)CC(C)C(=O)C(C)C2N(C3CN(S(=O)(=O)c4ccc(-n5nc(C)cc5C)cc4)C3)C(=O)OC12C (centres unmarked) | MIC H. influenzae 1218 | µg/mL | 8 |
| CCC1OC(=O)C(C)C(=O)C(C)C(OC2OC(C)CC(N(C)C)C2O)C(C)(OC)CC(C)C(=O)C(C)C2N(CC3CN(Cc4n[nH]c5ccccc45)C3)C(=O)OC12C (centres unmarked) | MIC H. influenzae 1218 | µg/mL | 0.12 |
| CCC1OC(=O)C(C)C(=O)C(C)C(OC2OC(C)CC(N(C)C)C2O)C(C)(OC)CC(C)C(=O)C(C)C2N(C3CN(S(=O)(=O)c4cccc5cnncc45)C3)C(=O)OC12C (centres unmarked) | MIC H. influenzae 1218 | µg/mL | 1 |

Moving on to the next compound.
In: Find MIC H. influenzae 1218 (Haemophilus influenzae 1218) for the entry CCC1OC(=O)C(C)C(=O)C(C)C(OC2OC(C)CC(N(C)C)C2O)C(C)(OC)CC(C)C(=O)C(C)C2N(C3CN(S(=O)(=O)c4cncc(-c5cnco5)c4)C3)C(=O)OC12C (centres unmarked)
Out: 1

====

test system: Streptococcus pneumoniae 1095; format: cell-based; details: S. pneumoniae 1095 (ermB); microtiter broth dilution
Quick reference for MIC S. pneumo. 1095 among some molecules

| molecule | test_system | MIC S. pneumo. 1095 |
| --- | --- | --- |
| CC[C@H]1OC(=O)[C@H](C)C(=O)[C@H](C)[C@@H](O[C@@H]2O[C@H](C)C[C@H](N(C)C)[C@H]2O)[C@](C)(OC)C[C@@H](C)C(=O)[C@H](C)[C@H]2N(CC3(O)CN(Cc4nc(C)[nH]c4C)C3)C(=O)O[C@]12C | Streptococcus pneumoniae 1095 | 8 µg/mL |
| CCC1OC(=O)C(C)C(=O)C(C)C(OC2OC(C)CC(N(C)C)C2O)C(C)(OC)CC(C)C(=O)C(C)C2N(C3CCN(Cc4cccc5cnccc45)C3)C(=O)OC12C (stereo not drawn) | Streptococcus pneumoniae 1095 | <0.06 µg/mL |

Moving on to another molecule below.
In: GET /values?readout=MIC S. pneumo. 1095&item= CCC1OC(=O)C(C)C(=O)C(C)C(OC2OC(C)CC(N(C)C)C2O)C(C)(OC)CC(C)C(=O)C(C)C2N(CC3CCCN3C(=O)c3cc4ccccn4n3)C(=O)OC12C (stereo not drawn)
Out: <0.06 µg/mL

====

Here, each record is paired with measured MIC H. influenzae 1218 data.
system: Haemophilus influenzae 1218; assay: MIC, microtiter broth dilution (NCCLS M100-S14), H. influenzae 1218 (susceptible); type: cell-based; conditions: Haemophilus influenzae 1218
Give just the number in µg/mL; leave the unit off.

Illustrative cases are given below, each with its answer.
| molecule | MIC H. influenzae 1218 [µg/mL] |
| --- | --- |
| CC[C@H]1OC(=O)[C@H](C)[C@@H](OC(=O)N2CCCC2)[C@H](C)[C@@H](O[C@@H]2O[C@H](C)C[C@H](N(C)C)[C@H]2O)[C@](C)(OC)C[C@@H](C)C(=O)[C@H](C)[C@H]2N(CC3CN(C(=O)c4ccnc5ccccc45)C3)C(=O)O[C@]12C | 2 |
| CCC1OC(=O)C(C)C(=O)C(C)C(OC2OC(C)CC(N(C)C)C2O)C(C)(OC)CC(C)C(=O)C(C)C2N(CC3CN(Cc4cccc5nc[nH]c45)C3)C(=O)OC12C (stereo not drawn) | 0.25 |

In: Form field: reported MIC H. influenzae 1218 of CC[C@H]1OC(=O)[C@H](C)[C@@H](OC(=O)N2CCCC2)[C@H](C)[C@@H](O[C@@H]2O[C@H](C)C[C@H](N(C)C)[C@H]2O)[C@](C)(OC)C[C@@H](C)C(=O)[C@H](C)[C@H]2N(CC3CN(Cc4nccc5ccccc45)C3)C(=O)O[C@]12C
Out: 2

In: // lookup MIC H. influenzae 1218 for CCC1OC(=O)C(C)C(=O)C(C)C(OC2OC(C)CC(N(C)C)C2O)C(C)(OC)CC(C)C(=O)C(C)C2N(C3CN(S(=O)(=O)c4cccc(-c5cc(C)no5)c4)C3)C(=O)OC12C (stereo not drawn)
Out: 2

In: Item under review: CCC1OC(=O)C(C)C(=O)C(C)C(OC2OC(C)CC(N(C)C)C2O)C(C)(OC)CC(C)C(=O)C(C)C2N(C3CN(Cc4c[nH]nc4-c4ccc(F)cc4)C3)C(=O)OC12C (stereo not drawn) . Reported MIC H. influenzae 1218?
Out: 2

Values from patent US7462600B2
